Quick reference for morphology score among some compounds
System: Vero E6 infected with SARS-CoV-2
Test: morphology score (similarity to uninfected cells); higher = more like uninfected cells
Conditions: 24 h
Provide a numeric answer; units are not to be included.

Below, each entry is followed by its recorded morphology score result.
O=[N+]([O-])c1cc(Cl)ccc1S(=O)(=O)N1CCN(Cc2ccccc2)CC1 (10 µM)
-0.0654
COc1ccc(Cl)c(Nc2nc3ccccc3nc2NS(=O)(=O)c2cccc(NC(=O)C(C)(C)N)c2)c1 [pilaralisib] (10 µM)
0.0424
CCCCOC(=O)c1ccccc1Nc1cccc(C(F)(F)F)c1 [ufenamate] (10 µM)
0.129

Query :: What morphology score appears in the records for this compound with Vero E6 infected with SARS-CoV-2? CCN(CC)CCOC(=O)c1cc(Cl)c(N)cc1OC (10 µM)
Result :: 0.128

Query :: What morphology score appears in the records for this compound with Vero E6 infected with SARS-CoV-2? Clc1cccc(/C=N/N=C/c2cccc(Cl)c2)c1 [3,3'-dichlorobenzaldazine] (10 µM)
Result :: 0.288

Query :: What morphology score appears in the records for this compound with Vero E6 infected with SARS-CoV-2? Fc1ccc([C@@H]2CCNC[C@H]2COc2ccc3c(c2)OCO3)cc1 [paroxetine] (10 µM)
Result :: -0.0761

Query :: What morphology score appears in the records for this compound with Vero E6 infected with SARS-CoV-2? O=C(Nc1cc(C(F)(F)F)cc(C(F)(F)F)c1)c1cnc(Cl)nc1C(F)(F)F (10 µM)
Result :: -0.17

Query :: What morphology score appears in the records for this compound with Vero E6 infected with SARS-CoV-2? Clc1ccc(CSC(Cn2ccnc2)c2ccc(Cl)cc2Cl)cc1 (centres undefined) [sulconazole] (10 µM)
Result :: -0.0348

Query :: What morphology score appears in the records for this compound with Vero E6 infected with SARS-CoV-2? CN(C)CCC=C1c2ccccc2C=Cc2ccccc21 [cyclobenzaprine] (10 µM)
Result :: 0.228

----------
Test system: Vero E6 infected with SARS-CoV-2
Experiment: inhibition of SARS-CoV-2 cytopathic effect; higher = more antiviral protection, active = above 15
Details: 8.33 nM; 48 h
assay endpoint: inhibition of SARS-CoV-2 cytopathic effect (%)
State just the number; it will be interpreted in %.

Below, each entry is followed by its recorded inhibition of SARS-CoV-2 cytopathic effect result.
CCN(CCCOc1ccc2c(Nc3cc(CC(=O)Nc4cccc(F)c4)[nH]n3)ncnc2c1)CCOP(=O)(O)O
0.9
O=c1[nH]c(=O)c2ccccc2o1
0.95
O=C(O)[C@@H]1C[C@@H](O)CN1 [L-hydroxyproline]
-1.12
COc1cc(N)c(Cl)cc1C(=O)N[C@@H]1CCN(CCCOc2ccc(F)cc2)C[C@@H]1OC (racemic) [cisapride]
-0.92

Query :: Which inhibition of SARS-CoV-2 cytopathic effect value belongs to CCCC(C)C1(CC)C(=O)NC(=S)NC1=O (stereo not given) ?
Result :: 0.01

Query :: Which inhibition of SARS-CoV-2 cytopathic effect value belongs to N#Cc1ccncn1 ?
Result :: 1.7

----------
Test system: Vero E6 infected with SARS-CoV-2
Experiment: SARS-CoV-2 infection rate relative to infected DMSO; higher = more infection, active = 60 or less
Details: 24 h
Thanks in advance; please answer with one of these: 1 (yes) for active, 0 (no) for inactive

Cc1nnc2n1-c1sc(CCC(=O)N3CCOCC3)cc1C(c1ccccc1Cl)=NC2 [apafant] (10 µM)
0 (no)
Cn1c(=O)c2c(ncn2CCO)n(C)c1=O [etofylline] (10 µM)
0 (no)
CCc1cc(C(N)=S)ccn1 [ethionamide] (10 µM)
0 (no)
CCCCCCCCC(=O)N[C@H](CN1CCCC1)[C@H](O)c1ccc2c(c1)OCCO2 (10 µM)
0 (no)
O=C(CCc1ccc(O)cc1)c1c(O)cc(O)cc1O [phloretin] (10 µM)
0 (no)

Query :: How did this test come out for Cc1ccc(/C=C2/C(=O)C3(C)CCC2C3(C)C)cc1 (centres undefined) [3-(4-methylbenzylidene)camphor] (10 µM) ?
Result :: 0 (no)

Query :: How did this test come out for O=C1CCCCCCCCCCCCCCO1 [oxacyclohexadecan-2-one] (10 µM) ?
Result :: 0 (no)

----------
System: Vero E6 infected with SARS-CoV-2
Assay: inhibition of SARS-CoV-2 cytopathic effect; higher = more antiviral protection, active = above 15
Settings: 10000 nM; 48 h
Quick reference for inhibition of SARS-CoV-2 cytopathic effect among some molecules
State just the number; it will be interpreted in %.

FC(F)(F)c1cc(NC(=S)Nc2ccc(Br)cc2-c2nnn[nH]2)cc(C(F)(F)F)c1
0.52

Now consider the entry below.
Query :: What inhibition of SARS-CoV-2 cytopathic effect appears in the records for this molecule with Vero E6 infected with SARS-CoV-2? C[C@@H]1COC(Nc2ccc3ncnc(Nc4ccc(OCc5nccs5)c(Cl)c4)c3c2)=N1
Result :: -4.19

----------
Quick reference for inhibition of SARS-CoV-2 cytopathic effect among some molecules
System: Vero E6 infected with SARS-CoV-2
Assay: inhibition of SARS-CoV-2 cytopathic effect; higher = more antiviral protection, active = above 15
Details: 8.33 nM; 48 h
State just the number; it will be interpreted in %.

Below, each entry is followed by its recorded inhibition of SARS-CoV-2 cytopathic effect result.
O=C(N[C@H]1CCN(C(=O)c2cc(C(F)(F)F)cc(C(F)(F)F)c2)[C@H](Cc2ccc(Cl)cc2)C1)c1ccnc2ccccc12
-1.32
c1cc(-c2sc(-c3ccncc3)c(-c3ccncc3)c2-c2ccncc2)ccn1
-0.14
O=c1c(-c2ccc(O)cc2)coc2c([C@@H]3O[C@H](CO)[C@@H](O)[C@H](O)[C@H]3O)c(O)ccc12 [puerarin]
-3.08
Ic1cncc(OC[C@@H]2CCN2)c1
-0.44
CN(CCOc1ccc(CC2SC(=O)NC2=O)cc1)c1ccccn1 (stereo not drawn)
-2.53
FC(F)(F)Oc1ccc2nc(-c3ccc(OCCOCCOc4ccc(-c5nc6ccc(OC(F)(F)F)cc6[nH]5)nc4)cn3)[nH]c2c1
1.44
CC(C)=CCC/C(C)=C/CNCCNC1C2CC3CC(C2)CC1C3 (stereo not drawn)
0.09
N[C@@H]1CONC1=O
-4.07
NCCCCCC(=O)O
-2.22
CC1(C)S[C@@H]2[C@H](NC(=O)[C@H](NC(=O)N3CCN(S(C)(=O)=O)C3=O)c3ccccc3)C(=O)N2[C@H]1C(=O)O
0.68

Query :: Which inhibition of SARS-CoV-2 cytopathic effect value belongs to NS(=O)(=O)C#Cc1ccccc1 ?
Result :: 5.91

Query :: Which inhibition of SARS-CoV-2 cytopathic effect value belongs to O=C1C(CC[S+]([O-])c2ccccc2)C(=O)N(c2ccccc2)N1c1ccccc1 (stereo not drawn) ?
Result :: 1.51

----------
Tested on: Vero E6 infected with SARS-CoV-2
Assay: inhibition of SARS-CoV-2 cytopathic effect; higher = more antiviral protection, active = above 15
Details: 10000 nM; 48 h
Thanks in advance; please answer with one of these: y = active, n = inactive

Query :: How did this test come out for Cc1cc(S(=O)(=O)O)c2c(C)ccc(C(C)C)cc1-2 [sodium-gualenate] ?
Result :: n

Query :: How did this test come out for CCN(CC)CCN(Cc1ccc(-c2ccc(C(F)(F)F)cc2)cc1)C(=O)Cn1c(SCc2ccc(F)cc2)nc(=O)c2c1CCC2 [darapladib] ?
Result :: n

Query :: How did this test come out for CC(C)(C#N)c1cc(Cn2cncn2)cc(C(C)(C)C#N)c1 [anastrozole] ?
Result :: n

Query :: How did this test come out for O=C1NC(=O)c2cc(Nc3ccc(F)cc3)c(Nc3ccc(F)cc3)cc21 ?
Result :: n

Query :: How did this test come out for O=C(O)c1c(Sc2ccccc2)c2cc(Cl)ccc2n1Cc1ccc(Cl)cc1 ?
Result :: n

Query :: How did this test come out for O=C1NC(c2ccccc2)(c2ccccc2)C(=O)N1COP(=O)(O)O [fosphenytoin] ?
Result :: n

Query :: How did this test come out for COc1cc(N2CCN(C)CC2)ccc1Nc1nccc(-c2cn(C)c3cnccc23)n1 ?
Result :: y

Query :: How did this test come out for CNC(=O)[C@H]1O[C@@H](n2cnc3c(NCc4cccc(I)c4)ncnc32)[C@H](O)[C@@H]1O ?
Result :: n

Query :: How did this test come out for Cn1cc(-c2ccc3ncc(Cc4ccc5ncccc5c4)n3n2)cn1 ?
Result :: n

Query :: How did this test come out for Cc1cccn2c(=O)c(/C=C(\C#N)c3nc4ccccc4s3)c(Oc3ccc(F)cc3)nc12 ?
Result :: n

Query :: How did this test come out for O=C([O-])CN1CCN(CC(=O)[O-])CCN([C@H](CO)[C@H](O)CO)CCN(CC(=O)[O-])CC1.[Gd+3] (racemic) [gadobutrol] ?
Result :: n

Query :: How did this test come out for N[C@@H](C(=O)O)c1nn[nH]n1 (racemic) [tetrazol-5-yl-glycine-(RS)] ?
Result :: n

Query :: How did this test come out for Nc1ccc(S(=O)(=O)Nc2ccc(Cl)nn2)cc1 [sulfachlorpyridazine] ?
Result :: n

Query :: How did this test come out for CC(O)CN1CCN(CC(=O)[O-])CCN(CC(=O)[O-])CCN(CC(=O)[O-])CC1.[Gd+3] (centres undefined) [gadoteridol] ?
Result :: n

// data source = the supplement of paper PMC13380429
